These data points were gathered from patent US20210388087A1.

Target: T1, Human CD137 ECD (human)
T1 construct: entry includes C-terminal His-tag and biotin acceptor peptide; also called human CD137 extracellular domain; 4-1BB
T1 sequence (chain, as listed by the source limits assumed): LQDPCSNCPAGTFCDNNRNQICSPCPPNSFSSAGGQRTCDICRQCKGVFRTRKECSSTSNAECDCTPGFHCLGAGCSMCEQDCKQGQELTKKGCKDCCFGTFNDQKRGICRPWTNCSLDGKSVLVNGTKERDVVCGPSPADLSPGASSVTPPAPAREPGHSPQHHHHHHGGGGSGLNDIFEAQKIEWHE
Assay: Biacore SPR, vs parent H183/L072
Metric: fold change of affinity (fold)
Answers are plain numbers, in fold.

H183/L072 VL E27aF (antibody, name in Kabat numbering, V domains shown, Dual-Ig) VH: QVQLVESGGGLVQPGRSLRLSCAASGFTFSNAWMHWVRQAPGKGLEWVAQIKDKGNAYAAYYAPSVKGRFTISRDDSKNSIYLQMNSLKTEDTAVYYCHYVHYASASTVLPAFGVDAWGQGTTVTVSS VL: DIVMTQSPLSLPVTPGEPASISCQASQFLVHMNRNTYLHWYQQKPGQAPRLLIYKVSNRFPGVPDRFSGSGSGTDFTLKISRVEAEDVGVYYCAQGTSVPFTFGQGTKLEIK : 1.1

Provide the reported fold change of affinity of each entry below, same order.
1. H183/L072 VL P95D (antibody, name in Kabat numbering, V domains shown, Dual-Ig) VH: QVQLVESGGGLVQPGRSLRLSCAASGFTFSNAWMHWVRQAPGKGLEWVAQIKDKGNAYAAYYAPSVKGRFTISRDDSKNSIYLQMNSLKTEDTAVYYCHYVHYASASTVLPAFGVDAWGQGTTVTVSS VL: DIVMTQSPLSLPVTPGEPASISCQASQELVHMNRNTYLHWYQQKPGQAPRLLIYKVSNRFPGVPDRFSGSGSGTDFTLKISRVEAEDVGVYYCAQGTSVDFTFGQGTKLEIK
2. H183/L072 VL V27cK (antibody, name in Kabat numbering, V domains shown, Dual-Ig) VH: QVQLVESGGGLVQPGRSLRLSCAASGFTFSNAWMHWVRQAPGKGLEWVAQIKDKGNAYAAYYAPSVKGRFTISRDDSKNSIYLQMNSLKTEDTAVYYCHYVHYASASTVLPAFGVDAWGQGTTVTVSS VL: DIVMTQSPLSLPVTPGEPASISCQASQELKHMNRNTYLHWYQQKPGQAPRLLIYKVSNRFPGVPDRFSGSGSGTDFTLKISRVEAEDVGVYYCAQGTSVPFTFGQGTKLEIK
3. H183/L072 VL G91V (antibody, name in Kabat numbering, V domains shown, Dual-Ig) VH: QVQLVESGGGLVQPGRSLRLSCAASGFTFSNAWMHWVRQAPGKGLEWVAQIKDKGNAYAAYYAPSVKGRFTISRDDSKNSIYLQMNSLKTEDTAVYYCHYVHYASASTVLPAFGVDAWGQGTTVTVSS VL: DIVMTQSPLSLPVTPGEPASISCQASQELVHMNRNTYLHWYQQKPGQAPRLLIYKVSNRFPGVPDRFSGSGSGTDFTLKISRVEAEDVGVYYCAQVTSVPFTFGQGTKLEIK
4. H183/L072 VL Y32I (antibody, name in Kabat numbering, V domains shown, Dual-Ig) VH: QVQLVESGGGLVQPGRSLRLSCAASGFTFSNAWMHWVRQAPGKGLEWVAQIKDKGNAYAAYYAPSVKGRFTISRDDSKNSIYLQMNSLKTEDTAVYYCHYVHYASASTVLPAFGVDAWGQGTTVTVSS VL: DIVMTQSPLSLPVTPGEPASISCQASQELVHMNRNTILHWYQQKPGQAPRLLIYKVSNRFPGVPDRFSGSGSGTDFTLKISRVEAEDVGVYYCAQGTSVPFTFGQGTKLEIK

Reply:
0
0.9
0
0
